test system: Daudi cells; experiment: Inhibition of human Daudi lymphoma cell proliferation (Cell-Titer Glo); assay type: cell-based; settings: Homo sapiens, 72 h, 3 days incubation, read-out: Anti-Proliferative Activity Against Daudi cells IC50
pIC50: −log10 of the molar value.
parameter: pIC50

Worked set:
- compound: "CN=S(=O)(c1cc(Nc2cc(C)[nH]n2)ccc1-c1cnc([C@H]2CC[C@H](NC(=O)OC(C)C)CC2)s1)C1CC1 (stereo partly shown)"
  assay.system: "Daudi cells"
  pIC50: 6.54
- compound: "CC(C)OC(=O)N[C@H]1CC[C@H](c2ncc(-c3ccc(Nc4n[nH]c5ccccc45)cc3S(=O)(=O)C3CC3)s2)CC1"
  assay.system: "Daudi cells"
  pIC50: 8.15
- compound: "CC(C)OC(=O)N[C@H]1CC[C@H](c2ncc(-c3ccc(Nc4ccc[nH]c4=O)cc3S(=O)(=O)C(C)C)s2)CC1"
  assay.system: "Daudi cells"
  pIC50: 5.37

P: COc1ccc(Nc2ccc(-c3cnc([C@H]4CC[C@H](NC(=O)OC(C)C)CC4)s3)c(S(=O)(=O)C3COC3)c2)cn1
Q: CC(C)OC(=O)Nc1ccc(-c2nnc([C@H]3CC[C@H](NC(=O)OC(C)C)CC3)s2)c(S(=N)(=O)C(C)C)c1 (stereo partly shown)
R: CN=S(=O)(c1cc(NC(=O)OC(C)C)ccc1-c1cnc(C2CCC(NC(=O)OC(C)C)CC2)s1)C(C)C (stereo not shown)
S: CC(C)OC(=O)NC12CCC(c3ncc(-c4ccc(Nc5cn(C)nn5)cc4S(=O)(=O)C4CC4)s3)(CC1)CC2
Req: Ascending by pIC50, please. Could you list the labels in the order requested?
Resp: R, Q, S, P

###

tested on: Daudi cells; assay: Inhibition of human Daudi lymphoma cell proliferation (Cell-Titer Glo); format: cell-based; settings: Homo sapiens, 72 h, 3 days incubation, read-out: Anti-Proliferative Activity Against Daudi cells IC50
pIC50: −log10 of the molar value.
parameter: pIC50

Look over these answered cases.
- compound: "CC(C)OC(=O)NC1CCC(c2ncc(-c3ccc(Nc4ncncn4)cc3S(=O)(=O)C3CC3)s2)CC1 (stereo not drawn) [Example 80]"
  pIC50: 6.48
- compound: "Cc1cc(Nc2ccc(-c3cnc([C@H]4CC[C@H](NC(=O)OC(C)C)CC4)s3)c(P3(=O)CCC3)c2)n[nH]1 [Example 103]"
  pIC50: 7.33
- compound: "CC(C)OC(=O)N[C@H]1CC[C@H](c2ncc(-c3ccc(Nc4cnn(CCF)c4)cc3P3(=O)CCC3)s2)CC1 [Example 104]"
  pIC50: 7.64
- compound: "CC(C)OC(=O)Nc1ccc(-c2cnc([C@H]3CC[C@H](NC(=O)OC(C)C)CC3)s2)c(S(=O)(=O)C(C)C)c1 [Example 2]"
  pIC50: 6.41

a: Cc1cc(Nc2ccc(-c3cnc(C45CCC(NC(=O)OC(C)C)(CC4)CC5)s3)c(S(=O)(=O)C3CC3)c2)n[nH]1 [Example 60]
b: C=CC(=O)N=S(=O)(c1cc(NC(=O)OC(C)C)ccc1-c1cnc([C@H]2CC[C@H](NC(=O)OC(C)C)CC2)s1)C(C)C (relative stereo) [Example 4]
Req: For the pair a and b , which entry has the numerically smaller recorded pIC50? Refer to your chosen item by its label in the answer.
Resp: b
